Tested on: Echinochloa crus-galli (ECHCG)
Experiment: Glasshouse assay for herbicidal activity, pre-/post-emergence (percentage phytotoxicity)
Type: in vivo
Conditions: Echinochloa crus-galli, post-emergence, 360 h, Rate 250 g/ha; post-emergence; visual assessment 15 DAA; 100%=total damage, 0%=no damage; read-out: Post-emergence herbicidal activity (percentage phytotoxicity), ECHCG POST
Hi, to clarify the labels: met covers pest or weed control at 250 g/ha from 80% upward, not met covers anything below 80%.

Request: Determine whether this compound has pest or weed control at 250 g/ha no lower than 80%: Cc1cc(C)c(C2C(=O)CC(CCNc3ncccc3C#N)C2=O)c(C)c1 (stereo not shown)
Result: met

Request: Again, but for Cc1cc(C)c(C2C(=O)CC(CCNC(=O)NC(=O)c3ccc(F)cc3C(F)(F)F)C2=O)c(C)c1 (stereo not shown)
Result: not met

Request: Again, but for CC(=NOCc1ccccc1)C(=O)NCCC1CC(=O)C(c2c(C)cc(C)cc2C)C1=O (stereo not shown)
Result: not met

Request: Again, but for CON=C(C#N)C(=O)NCCC1CC(=O)C(c2c(C)cc(-n3cc(Cl)cn3)cc2C)C1=O (stereo not shown)
Result: not met

Request: Again, but for CON=C(C)C(=O)NCCC1CC(=O)C(c2c(C)cc(-n3cc(Cl)cn3)cc2C)C1=O (stereo not shown)
Result: met

Request: Again, but for Cc1cc(C)c(C2C(=O)CC(CCNS(=O)(=O)C(C)C)C2=O)c(C)c1 (stereo not shown)
Result: not met

Request: Again, but for Cc1cc(C)c(C2C(=O)CC(CCNC(=O)N(C)C)C2=O)c(C)c1 (stereo not shown)
Result: not met

Request: Again, but for C#Cc1cc(C)cc(C)c1C1C(=O)CC(CCNC(=O)C2=NOC(C)(C)C2)C1=O (stereo not shown)
Result: met

Request: Again, but for Cc1cc(C)c(C2C(=O)CC(CCNC(=O)NC(=O)c3ccccc3)C2=O)c(C)c1 (stereo not shown)
Result: met

Request: Again, but for Cc1cc(C)c(C2C(=O)CC(CCNC(=O)Nc3cc(C(C)(C)C)on3)C2=O)c(C)c1 (stereo not shown)
Result: not met

Request: Again, but for Cc1cc(C)c(C2C(=O)CC(CCNc3ncc(C(F)(F)F)cc3F)C2=O)c(C)c1 (stereo not shown)
Result: met

Request: Again, but for Cc1cc(C)c(C2C(=O)CC(CCNc3ncc(Br)cn3)C2=O)c(C)c1 (stereo not shown)
Result: met

Request: Again, but for Cc1cc(C)c(C2C(=O)CC(CCNC(=O)Nc3ccncn3)C2=O)c(C)c1 (stereo not shown)
Result: not met

Request: Again, but for CNC(=O)NCCC1CC(=O)C(c2c(C)cc(C)cc2C)C1=O (stereo not shown)
Result: met
